Record form. Attribute: pKd. Fill in for each entry.
assay target: T1, 417N/484K/501Y RBD mutant (SARS-CoV-2, Wuhan-Hu-1 RBD backbone …, 417N | 484K | 501Y)
T1 construct: also called RBD KEN
protocol text: BLI
condition: both partners purified
Hey, just a heads up that pKd is the negative log base 10 of the concentration in molar.

Measured pKd, V019 (antibody, V domains shown, IgG; donor BRA13; source: recombinant monoclonal IgG, produced and purified as previously described) VH: QVQLVQSGAEVKKPGSSVKVSCKASGGTFSTYTFSWVRQAPGQGLEWMGRIIPILGIANYAQKFQGRITITADKSTSTAYMELSSLRSEDTAVYYCAWGSYSYGYFVDIWGQGTMVTVSS VL: DIVMTQTLLSLSVTPGQPASISCKSSQSLLHSDGKTYLYWYLQKPGQSPQLLIYEVSSRFSGVPDRFSGSGSGTDFTLKISRVEAEDVGVYYCMQGIQFHWTFGQGTKLEIK : 8.48

Noted for V064 (antibody, V domains shown, IgG; donor BRA15; source: recombinant monoclonal IgG, produced and purified as previously described) VH: EVQLVESGGGLVQPGGSLRLSCAASGLTVSRNYMRWVRQAPGKGLEWVSLIYSGGSTFYGDSVKGRFTISRDNSKNTLYLQMNSLRAEDTAVYYCARDLVRDGMDVWGQGTTVTVSS VL: EIVMTQSPATLSVSPGERATLSCRASQSVSSNLAWYQQKPGQAPRLLIYGASTRATGIPARFSGSGSGTEFTLTISSLQSEDFAVYYCQQYNNWTFGQGTKVEIK : its pKd reads 8.72

Value of pKd reported for the binder V055 (antibody, V domains shown, IgG; donor BRA15; source: recombinant monoclonal IgG, produced and purified as previously described) VH: QVQLVQSGAEVKKPGSSVKVSCKASGGTFSSYIINWVRQAPGQGLEWMGRIIPILGIANYAQKFHGRVTITADESTSTAYMELSSLRSEDTAVYYCARGGPDPSDSNYAALLYYYYMDVWGKGTTVTVSS VL: QSVLTQPPSVSAAPGQKVTISCSGSSSNIGSYYVSWYQKLPGTAPKLLIHENNKRPSGIPDRISGSKSGTSATLGITGLQTGDEADYYCGTWDSSLSDVVFGGGTKLTVL is 8.70

// provenance: paper PMC9270183
